- Tested on: A549-ACTB-RAB5A
- ASSAY NAME: phenotypically active (imaging signature differs from DMSO and reproducible) at any of 0.3-9 uM (binary (1 = active, 0 = inactive)); higher = active
- CONDITION SUMMARY: treatment time: 24 h
Structures can show the parent of a compound that is named as a salt.
Allowed answers: 1 (active), 0 (inactive)

// known answers, use as guide
- MOLECULE: "CO[C@H]1C[C@@H]2CC[C@@H](C)[C@@](O)(O2)C(=O)C(=O)N2CCCC[C@H]2C(=O)O[C@H]([C@H](C)C[C@@H]2CC[C@@H](OC(=O)C(C)(CO)CO)[C@H](OC)C2)CC(=O)[C@H](C)C=C(C)[C@@H](O)[C@@H](OC)C(=O)[C@H](C)C[C@H](C)C=CC=CC=C1C"
  CLASS ASSIGNMENT: 1
- MOLECULE: "COc1c(C)cnc(Cn2cc(C#CCC(C)(C)O)c3c(Cl)nc(N)nc32)c1C"
  CLASS ASSIGNMENT: 1

Continue with the next molecule.
Status in this test for NCCCCNS(=O)(=O)c1ccc2c(Cl)cccc2c1 [W-13 hydrochloride] ?
0

###

- System: HepG2-GM130-SQSTM1
- ASSAY NAME: phenotypically active (imaging signature differs from DMSO and reproducible) at any of 0.3-9 uM (binary (1 = active, 0 = inactive)); higher = active
- CONDITION SUMMARY: treatment time: 24 h
Counter-ions that a name gives are not always drawn.
Allowed answers: active, inactive

// known answers, use as guide
- COMPOUND: "COC(=O)/C=C/c1cccc(N(Cc2ccc(-c3ccc(N(C)C)cc3)cc2)C(=O)C2CCCCC2)c1"
  CLASS ASSIGNMENT: "inactive"
- COMPOUND: "O=S(c1ccccc1)c1ccc2nnnn2n1 (stereo not given)"
  CLASS ASSIGNMENT: "inactive"
- COMPOUND: "COCCCC/C(=N/OCCN)c1ccc(C(F)(F)F)cc1"
  CLASS ASSIGNMENT: "inactive"
- COMPOUND: "N#Cc1ccc(C(c2ccc(C#N)cc2)n2cncn2)cc1"
  CLASS ASSIGNMENT: "inactive"
- COMPOUND: "CCc1nc(-c2cccc(C)c2)c(-c2ccnc(NC(=O)c3ccccc3)c2)s1"
  CLASS ASSIGNMENT: "active"

Status in this test for COC(=O)c1sccc1S(=O)(=O)Nc1ccc(Nc2ccccc2)cc1OC ?
inactive

Status in this test for CCN(CC)C(C)CN1c2ccccc2Sc2ccccc21 (stereo not given) ?
inactive

Status in this test for O=C(O)C(CO)c1ccccc1 (stereo not given) ?
inactive

Status in this test for CC(C)c1cnn2c(NCc3ccccc3)cc(NCCCCCCN)nc12 [BS 181 dihydrochloride] ?
inactive

Status in this test for CCCCCCOc1cc2c(cc1N(C)c1ncc(C(=O)O)cn1)C(C)(C)CCC2(C)C ?
inactive

###

- System: WPMY1-GM130-SQSTM1
- ASSAY NAME: phenotypically active (imaging signature differs from DMSO and reproducible) at any of 0.3-9 uM (binary (1 = active, 0 = inactive)); higher = active
- CONDITION SUMMARY: treatment time: 24 h
PROPERTY LABEL: phenotypically active
# output: bare number, no unit

- SAMPLE SMILES: "NC(=O)c1cccc(-c2cc(Nc3ccc(OC(F)(F)F)cc3)ncn2)c1"
  phenotypically active: 1

// below: phenotypically active requested for another compound
Field phenotypically active (entry O=C(CCCCCCC(=O)Nc1ccccc1)NO ) reads 1
